Biological target: T1, cynomolgus monkey FcRn (cynomolgus monkey, UniProt Q8SPV9 24-297; Q8SPW0 21-119, limits assumed)
T1 construct: also called cynoFcRn
Assay: SPR, pH 7.4
REPORTED_METRIC: Kd (nM)
// units = nM; emit number, no label

Short answer for Fc Fragment 1 (other, Human IgG1 Fc fragment (EU 221-446) with the named substitutions already in the entry; also called Efgartigimod (Efgart); Efgartigimod without the C-terminal lysine) DKTHTCPPCPAPELLGGPSVFLFPPKPKDTLYITREPEVTCVVVDVSHEDPEVKFNWYVDGVEVHNAKTKPREEQYNSTYRVVSVLTVLHQDWLNGKEYKCKVSNKALPAPIEKTISKAKGQPREPQVYTLPPSRDELTKNQVSLTCLVKGFYPSDIAVEWESNGQPENNYKTTPPVLDSDGSFFLYSKLTVDKSRWQQGNVFSCSVMHEALKFHYTQKSLSLSPG : Kd was 1370

Short answer for Fc Fragment 20 (other, Human IgG1 Fc fragment; substitutions already in the entry) DKTHTCPPCPAPELLGGPSVFLFPPKPKDTLYITREPEVTCVVVDVSHEDPEVKFNWYVDGVEVHNAKTKPREEQYNSTYRVVSVLTVDHKDWLNGKEYKCKVSNKALPAPIEKTISKAKGQPREPQVYTLPPSRDELTKNQVSLTCLVKGFYPSDIAVEWESNGQPENNYKTTPPVLDSDGSFFLYSKLTVDKSRWQQGNVFSCSVMHEALKYHYTQKSLSLSPG : Kd was 1550

Short answer for Fc Fragment 11 (other, Human IgG1 Fc fragment; substitutions already in the entry) DKTHTCPPCPAPELLGGPSVFLFPPKPKDTLYITREPEVTCVVVDVSHEDPEVKFNWYVDGVEVHNAKTKPREEQYNSTYRVVSVLTVLHQDWLNGKEYKCKVSNKALPAPIEKTISKAKGQPREPQVYTLPPSRDELTKNQVSLTCLVKGFYPSDIAVEWESNGQPENNYKTTPPVLDSDGSFFLYSKLTVDKSRWQQGNVFSCSVLHEALHFHYTQKSLSLSPG : Kd was 1700

Short answer for Fc Fragment 18 (other, Human IgG1 Fc fragment; substitutions already in the entry) DKTHTCPPCPAPELLGGPSVFLFPPKPKDTLYITREPEVTCVVVDVSHEDPEVKFNWYVDGVEVHNAKTKPREEQYNSTYRVVSVLTVDHQDWLNGKEYKCKVSNKALPAPIEKTISKAKGQPREPQVYTLPPSRDELTKNQVSLTCLVKGFYPSDIAVEWESNGQPENNYKTTPPVLDSDGSFFLYSKLTVDKSRWQQGNVFSCSVLHEALKYHYTQKSLSLSPG : Kd was 2110

Short answer for Fc Fragment 19 (other, Human IgG1 Fc fragment; substitutions already in the entry) DKTHTCPPCPAPELLGGPSVFLFPPKPKDTLYITREPEVTCVVVDVSHEDPEVKFNWYVDGVEVHNAKTKPREEQYNSTYRVVSVLTVDHKDWLNGKEYKCKVSNKALPAPIEKTISKAKGQPREPQVYTLPPSRDELTKNQVSLTCLVKGFYPSDIAVEWESNGQPENNYKTTPPVLDSDGSFFLYSKLTVDKSRWQQGNVFSCSVMHEALKFHYTQKSLSLSPG : Kd was 1430

Source of measurements: patent US20250152704A1
